All figures here come from the kinase profiling compilation of Christmann-Franck et al. (2016).

Biological target: MAP3K1 (human) (UniProt Q13233)
Sequence (Q13233 whole entry, looked up): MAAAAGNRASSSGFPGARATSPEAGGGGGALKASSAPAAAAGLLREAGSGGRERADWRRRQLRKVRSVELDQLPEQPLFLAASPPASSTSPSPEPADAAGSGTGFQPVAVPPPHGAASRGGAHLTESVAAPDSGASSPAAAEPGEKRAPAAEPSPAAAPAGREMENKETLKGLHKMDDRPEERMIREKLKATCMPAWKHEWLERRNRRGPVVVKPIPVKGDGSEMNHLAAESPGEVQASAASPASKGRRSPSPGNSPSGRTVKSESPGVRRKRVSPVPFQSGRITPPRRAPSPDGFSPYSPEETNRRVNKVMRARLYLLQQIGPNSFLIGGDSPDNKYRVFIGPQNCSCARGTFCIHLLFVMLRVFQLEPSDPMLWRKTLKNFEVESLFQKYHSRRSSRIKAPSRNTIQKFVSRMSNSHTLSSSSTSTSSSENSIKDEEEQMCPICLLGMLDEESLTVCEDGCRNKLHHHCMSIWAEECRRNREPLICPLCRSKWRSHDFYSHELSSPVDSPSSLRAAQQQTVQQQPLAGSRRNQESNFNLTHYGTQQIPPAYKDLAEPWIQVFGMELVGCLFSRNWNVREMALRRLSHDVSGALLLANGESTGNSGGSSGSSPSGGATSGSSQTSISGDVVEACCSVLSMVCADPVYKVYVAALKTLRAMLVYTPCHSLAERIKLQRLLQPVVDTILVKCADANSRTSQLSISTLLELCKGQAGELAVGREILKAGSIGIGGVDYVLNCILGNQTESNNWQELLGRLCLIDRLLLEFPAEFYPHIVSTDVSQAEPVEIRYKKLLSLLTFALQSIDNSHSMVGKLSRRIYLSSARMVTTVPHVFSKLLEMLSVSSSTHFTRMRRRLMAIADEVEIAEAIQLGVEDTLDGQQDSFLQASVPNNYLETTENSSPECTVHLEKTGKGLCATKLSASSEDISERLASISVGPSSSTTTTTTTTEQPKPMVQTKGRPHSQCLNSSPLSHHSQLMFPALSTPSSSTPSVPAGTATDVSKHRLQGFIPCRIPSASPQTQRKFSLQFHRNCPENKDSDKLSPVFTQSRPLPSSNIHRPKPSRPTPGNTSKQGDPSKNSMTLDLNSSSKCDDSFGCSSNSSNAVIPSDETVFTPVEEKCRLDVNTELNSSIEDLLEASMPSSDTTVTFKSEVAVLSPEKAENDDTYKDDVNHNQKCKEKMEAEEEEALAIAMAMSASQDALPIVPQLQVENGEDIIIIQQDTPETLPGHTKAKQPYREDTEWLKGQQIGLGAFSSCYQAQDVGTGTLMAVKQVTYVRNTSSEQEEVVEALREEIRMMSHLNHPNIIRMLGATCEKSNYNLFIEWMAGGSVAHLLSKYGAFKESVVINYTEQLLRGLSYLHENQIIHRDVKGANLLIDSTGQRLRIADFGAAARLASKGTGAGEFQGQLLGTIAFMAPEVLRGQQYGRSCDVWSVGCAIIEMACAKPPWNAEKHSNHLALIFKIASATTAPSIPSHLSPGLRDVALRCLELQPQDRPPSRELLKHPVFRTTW
Experiment: radiometric filter-binding kinase assay
Conditions: compound 0.1 µM
residual activity listing for selected compounds.
Report the value in % with no unit label.

// below: answered compounds
• O=C(Nc1nc2cc(C(F)(F)F)cc(NC3CC3)n2n1)c1cccnc1 = 108
• NC(=O)c1cc2c(-c3cccc(-c4ccccc4)c3)cnc(N)c2s1 = 108

Can you look up the measured residual activity of CN(C)C/C=C/C(=O)Nc1cccc(C(=O)Nc2ccc(Nc3nccc(-c4cccnc4)n3)cc2)c1 for me? 85

Which value of residual activity has been reported for O=C(N[C@@H](COc1ccc2[nH]c(=O)[nH]c2c1)c1ccccc1)c1cccn(Cc2ccc(F)c(F)c2)c1=O in the records? 110

Give the measured residual activity of NC1(c2ccc(-c3nc4ccn5c(=O)[nH]nc5c4cc3-c3ccccc3)cc2)CCC1 . 114

Param item = CCn1c(-c2nonc2N)nc2cncc(CNC3CCNCC3)c21 ; retrieve measured residual activity. 94

Give the measured residual activity of Cc1ccc(Sc2cnc(Nc3cccc(Br)n3)s2)cc1C(=O)N1CCN(C(=O)CN)CC1 . 46
